Value source: patent US20210284621A1

- TEST_SYSTEM: CB2 receptor (Homo sapiens, UniProt P34972)
- Sequence (P34972 whole entry): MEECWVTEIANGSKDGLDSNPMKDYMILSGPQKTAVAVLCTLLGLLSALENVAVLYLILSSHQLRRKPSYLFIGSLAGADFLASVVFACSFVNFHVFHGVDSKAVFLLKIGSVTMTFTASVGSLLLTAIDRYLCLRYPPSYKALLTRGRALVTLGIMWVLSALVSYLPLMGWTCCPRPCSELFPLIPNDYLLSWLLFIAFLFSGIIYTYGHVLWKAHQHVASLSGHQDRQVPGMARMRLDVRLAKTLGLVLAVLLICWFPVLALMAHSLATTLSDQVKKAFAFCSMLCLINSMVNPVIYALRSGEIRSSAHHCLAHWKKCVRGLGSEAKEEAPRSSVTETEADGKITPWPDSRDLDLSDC
- METHOD_SUMMARY: CB2 competitive radioligand binding assay ([3H] WIN-55,212-2)
- Parameters: expressed in transfected cells; host or cells: CHO-K1 cells
# reported pKi; entries follow
For clarity, pKi is expressed as the negative log10 of concentration in mol/L.

| COMPOUND | MEAS_VALUE |
| --- | --- |
| CCCCCCC(C)(C)c1cc(O)c2c(c1)OC(C)(C)[C@@H]1CC=C(C#N)C[C@@H]21 [Compound 112] | 9.15 |
| CCCC(C)(C)c1cc(O)c2c(c1)OC(C)(C)[C@@H]1CC=C(C(=O)NC3(C(F)(F)F)CC3)C[C@@H]21 [Compound 102] | 7.29 |

Now consider the entry below.
If you can, please state the reported pKi value of CCCCCCC(C)(C)c1cc(O)c2c(c1)OC(C)(C)[C@@H]1CC=C(C(=O)NC(C)=N)C[C@@H]21 [Compound 94] .
7.90

###

- TEST_SYSTEM: CB1 receptor (Homo sapiens, UniProt P21554)
- Sequence (P21554 whole entry): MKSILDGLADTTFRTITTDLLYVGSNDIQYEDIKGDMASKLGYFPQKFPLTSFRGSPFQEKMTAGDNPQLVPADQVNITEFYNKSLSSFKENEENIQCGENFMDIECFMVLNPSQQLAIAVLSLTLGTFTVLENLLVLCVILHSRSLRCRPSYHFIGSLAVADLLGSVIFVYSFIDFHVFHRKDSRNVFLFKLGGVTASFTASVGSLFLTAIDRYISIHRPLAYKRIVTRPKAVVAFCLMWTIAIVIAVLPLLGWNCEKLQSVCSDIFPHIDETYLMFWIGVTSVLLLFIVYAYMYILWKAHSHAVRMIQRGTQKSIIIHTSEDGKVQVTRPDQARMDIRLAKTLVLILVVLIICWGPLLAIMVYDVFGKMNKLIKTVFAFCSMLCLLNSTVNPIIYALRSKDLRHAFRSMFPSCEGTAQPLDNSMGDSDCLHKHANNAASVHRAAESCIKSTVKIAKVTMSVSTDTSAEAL
- METHOD_SUMMARY: CB1 competitive radioligand binding assay ([3H] SR141716A)
- Set-up: expressed in transfected cells; host or cells: Chem-1 cells
- CONDITIONS: 0.5 μM compound, 2.0 nM [3H] SR141716A, 90 min 37° C.
Lab note: anything with inhibition at 0.5 µM at or over 20% counts as Criterion met; the rest go in Criterion not met.

// inclusive: inhibition at 0.5 µM at least 20%? input: CCCCCCC(C)(C)c1cc(OC(C)=O)c2c(c1)OC(C)(C)[C@@H]1CC=C(C#N)C[C@@H]21 [Compound 19]
Criterion met

I'd appreciate it if you could say whether CCCCCCC(C)(C)c1cc(O)c2c(c1)OC(C)(C)[C@@H]1CC=C(C(=O)NCCC(=O)O)C[C@@H]21 [Compound 26] has inhibition at 0.5 µM at least equal to 20%.
Criterion not met

Please check the record CCCCCCC(C)(C)c1cc(O)c2c(c1)OC(C)(C)[C@@H]1CC=C(C(=O)NC(CO)CO)C[C@@H]21 [Compound 25] and state if its inhibition at 0.5 µM is at or above 20%.
Criterion met

Evaluate CCCCCCC(C)(C)c1cc(O)c2c(c1)OC(C)(C)[C@H]1CC=C(C(=O)O)C[C@H]21 [Compound 20] : inhibition at 0.5 µM at minimum 20%?
Criterion not met

Assess whether reported inhibition at 0.5 µM for CCCCCCC(C)(C)c1cc(O)c2c(c1)OC(C)(C)[C@@H]1CC=C(C(=O)NC(C)(C)CCO)C[C@@H]21 [Compound 15] sits at 20% or higher.
Criterion not met

Tell me whether inhibition at 0.5 µM is at least 20% here: CCCCCCC(C)(C)c1cc(O)c2c(c1)OC(C)(C)[C@@H]1CC=C(C(=O)NCC(=O)O)C[C@@H]21 [Compound 1]
Criterion not met

Could you verify whether the entry CCCCCCC(C)(C)c1cc(O)c2c(c1)OC(C)(C)[C@@H]1CC=C(C(=O)N[C@H]3CC[C@H](O)CC3)C[C@@H]21 [Compound 17] shows inhibition at 0.5 µM of no less than 20%?
Criterion met

Entry CCCCCCCC(C)(C)c1cc(O)c2c(c1)OC(C)(C)[C@@H]1CC=C(C(=O)O)C[C@@H]21 [Compound 9] : is its inhibition at 0.5 µM no less than 20%?
Criterion not met

I'd appreciate it if you could say whether CCCCCCC(C)(C)c1cc(O)c2c(c1)OC(C)(C)[C@@H]1CC=C(C(=O)OC(C)C)C[C@@H]21 [Compound 29] has inhibition at 0.5 µM at least equal to 20%.
Criterion met
